tested on: P. falciparum stage V female gametocytes; experiment: P. falciparum female gametocyte activation assay (Pf FGAA), 24 h or 48 h preincubation, Pfs25 expression readout; format: cell-based, Plasmodium falciparum NF54; conditions: mean; P. falciparum female gametocyte activation assay; read-out: Gametocytes mean Pf FGAA IC50
Please provide measured log10 IC50 for the entries that follow.
The base-10 logarithm of IC50, taken with IC50 in nM, is what appears here.

Request - read-out log10 IC50 | tested on P. falciparum stage V female gametocytes | molecule Cl.N=C1C=C(N)C(=O)c2ccccc21 [TCMDC-141992]
4.08

Kindly state the measured log10 IC50 obtained for Cc1c(N=O)cc(C(C)(C)C)c(O)c1C(=O)Nc1ccc([N+](=O)[O-])cc1Cl [TCMDC-142233] with P. falciparum stage V female gametocytes.
3.07

Record lookup: for P. falciparum stage V female gametocytes, what log10 IC50 belongs to CC1(CCN2CCC(c3c[nH]c4cnccc34)CC2)CCCc2c(Br)cccc2C1=O.Cl (centres unmarked) [TCMDC-141171] ?
3.24

Give recorded log10 IC50 with P. falciparum stage V female gametocytes for the following molecule: CN1CCN(CCCNc2ncc3c(-c4ccc(NC(=O)Nc5cc(C(F)(F)F)ccc5F)c(F)c4)nn(C)c3n2)CC1.O=C(O)C(F)(F)F [TCMDC-141611]
2.94

API: value(readout=log10 IC50, system=P. falciparum stage V female gametocytes) for record CN(C)CCN1CCN(CCCN2c3ccccc3Sc3ccc(C(F)(F)F)cc32)CC1.Cl [TCMDC-142257]
3.72

Request - read-out log10 IC50 | tested on P. falciparum stage V female gametocytes | molecule Cl.O=S(=O)(Nc1cc2c(cc1OCCCN1CCCCC1)CCNCC2)c1ccc(-c2ccc(Cl)cc2)cc1 [TCMDC-141753]
3.30

Query the reported log10 IC50 for P. falciparum stage V female gametocytes; item: CC(C)(CNC(=O)[C@H]1CCCN1)c1nc(-c2ccc(Cl)c(O)c2)c(-c2ccncc2)[nH]1.Cl [TCMDC-141060]
3.08

Given the entry CCn1c2ccccc2c2cc(C=NN=c3cc(C)[nH]c4ccccc34)ccc21 [TCMDC-142186] , what log10 IC50 was observed with P. falciparum stage V female gametocytes?
3.62

Request: log10 IC50, test system P. falciparum stage V female gametocytes, entry CCN(CC)CCN(Cc1ccc(-c2ccc(C(F)(F)F)cc2)cc1)C(=O)Cn1cc(Cc2cnn(C)c2)c(=O)nc1/C=C/c1cccc(F)c1F [TCMDC-140964]
2.94

Which measured log10 IC50 belongs to Cc1c(Cn2nc(Cl)c(N3CCNCC3)cc2=O)cccc1NC(=O)Nc1ccc(-c2ccccc2)cc1.O=C(O)C(F)(F)F [TCMDC-141699] , tested on P. falciparum stage V female gametocytes?
3.69

Query for P. falciparum stage V female gametocytes: what log10 IC50 does the record show for O=C(O)CCSSc1cccc[n+]1[O-] [TCMDC-141973] ?
1.60

For P. falciparum stage V female gametocytes, provide log10 IC50 of Cc1ccc(Cn2ncc(N3CCCNCC3)c(Cl)c2=O)cc1NC(=O)Nc1ccc(-c2ccccc2)cc1 [TCMDC-141924] please.
3.24

Lab note: need log10 IC50 with P. falciparum stage V female gametocytes for entry CC(C)(CNC(=O)[C@@H]1CCCCN1)c1nc(-c2ccc(Cl)c(O)c2)c(-c2ccncc2)[nH]1.Cl [TCMDC-141079] , please look it up.
3.20

Item CCOc1ccc2c(=NN=Cc3cc(OC)c(OC)cc3OC)cc(C)[nH]c2c1 [TCMDC-142207] with P. falciparum stage V female gametocytes - log10 IC50?
3.09

----------
tested on: HepG2 cells; test: HepG2 cytotoxicity assay; format: cell-based; conditions: mean
measure: HepG2 cells mean TOX50

Give HepG2 cells mean TOX50 (HepG2 cells) of the following molecule: `COc1ccc2cc(CNCCCCCCNCc3ccc4cc(OC)ccc4c3)ccc2c1.CS(=O)(=O)O`
1.55 µM

What is its HepG2 cells mean TOX50 for HepG2 cells? Entry: `CCn1c(-c2nonc2N)nc2c(-c3cccc(NC(=O)Nc4ccc(C(F)(F)F)cc4)c3)ncc(OCCCN)c21.O=C(O)C(F)(F)F`
5.62 µM

Requested read-out HepG2 cells mean TOX50, target or system HepG2 cells, entry `CCN(CC)CCN(Cc1ccc(-c2ccc(Cl)cc2)cc1)C(=O)Cn1cc(CN(C)C)c(=O)nc1SCc1ccc(F)cc1`
6.61 µM

Param readout= HepG2 cells mean TOX50; system= HepG2 cells; entry= `CN(/N=C/C=C/c1ccc(Cl)cc1)c1nc(NCCc2ccc(O)cc2)nc(N2CCNCC2)n1` ; returns value.
13.18 µM

Look up HepG2 cells mean TOX50 with HepG2 cells for this molecule: `O=C(Nc1ccc(-c2ccccc2)c(OCCN2CCNCC2)c1)c1ccc(-c2ccc(Cl)cc2)cc1`
4.95 µM

Param readout = HepG2 cells mean TOX50; param system = HepG2 cells; param query = COc1cccc(CCNC(C)Cc2ccc(OCCCCOc3ccccc3)cc2)c1 (stereo not shown) ; response: value
1.46 µM

Field: HepG2 cells mean TOX50 (HepG2 cells). Entry: `COc1cc2c(OC)cccc2cc1CNCCCCCCNCc1cc2cccc(OC)c2cc1OC.CS(=O)(=O)O`
4.90 µM

----------
Kindly supply the reported HepG2 cells mean TOX50 values for the records listed here.
system: HepG2 cells; assay: HepG2 cytotoxicity assay; assay type: cell-based; settings: HepG2 cells; mean
Note: unit µM is implicit; provide only the numeric part.

Recorded HepG2 cells mean TOX50 for COc1ccc(CNC2Cc3ccccc3C2)cc1-c1ccc(OC)c(S(=O)(=O)NCCN2CCCC2)c1.O=C(O)C(F)(F)F [TCMDC-132251] , please?
7.17

Data request, read-out HepG2 cells mean TOX50, for Cc1ccc(C(C(=O)Nc2ccc(N3CCNCC3)c(Cl)c2)c2ccccc2)cc1 (stereo not shown) [TCMDC-134292]
11.89

For the compound shown here, COc1ccc(-c2cnc3[nH]cc(-c4ccncc4)c3c2)cc1OC [TCMDC-135853] , give the reported HepG2 cells mean TOX50.
11.79

----------
test system: HepG2 cells; assay: HepG2 cytotoxicity assay; format: cell-based; conditions: HepG2 cells; mean
hey, just use met if measured HepG2 cells mean TOX50 is less than 8 µM, otherwise not met

I'd appreciate it if you could check whether `Cc1occc1C(=O)Nc1nc(-c2ccccn2)nc2ccsc12` has HepG2 cells mean TOX50 smaller than 8 µM.
not met

Is the reported HepG2 cells mean TOX50 for `COc1cc2nc(NCCCN3CCCCC3)nc(NCc3ccccc3)c2cc1OC` strictly below 8 µM?
met

I wonder whether `Br.Oc1ccc(CCNCCCCCCNCCc2ccc(Cl)c3ccccc23)cc1O` has HepG2 cells mean TOX50 below 8 µM. Can you tell?
not met

Lab note: confirm whether the reported HepG2 cells mean TOX50 for this compound is below 8 µM, equality not counting. compound: `C[C@H](Cc1ccc(OCCCCCOc2ccc(C[C@@H](C)NC[C@H](O)c3cccc(Cl)c3)cc2)cc1)NC[C@H](O)c1cccc(Cl)c1.Cl`
met

Lab note: confirm whether the reported HepG2 cells mean TOX50 for this compound is below 8 µM, equality not counting. compound: `COc1cc(OC)cc(C(=O)Nc2nc(-c3ccccn3)cs2)c1`
not met

I'd appreciate it if you could check whether `CC(C)(C)c1cc(NC2CC2)nc(-c2ccccn2)n1` has HepG2 cells mean TOX50 smaller than 8 µM.
not met

Confirm or reject: HepG2 cells mean TOX50 of Nc1c(Cl)cc(C(O)CNCCCCCOCCCc2ccc(O)c3ncccc23)cc1Cl.O=C(O)/C=C/C(=O)O (centres unmarked) lies strictly below 8 µM
met

# TODO verify HepG2 cells mean TOX50 < 8 µM strictly for this compound: `NCc1ccc(CNCc2ccc(-c3ccc(-c4nc5cc(C(F)(F)F)ccc5[nH]4)s3)cc2)cc1.O=C(O)C(F)(F)F`
not met

----------
tested on: P. falciparum stage V female gametocytes; assay: P. falciparum female gametocyte activation assay (Pf FGAA), 24 h or 48 h preincubation, Pfs25 expression readout; assay type: cell-based, Plasmodium falciparum NF54; conditions: mean; P. falciparum female gametocyte activation assay; read-out: Gametocytes mean Pf FGAA IC50
For each record, write down the corresponding pIC50.
// returns pIC50 (minus log10 of molar concentration), number only

Kindly state the measured pIC50 obtained for `CN1CCN(c2ccc(Nc3ncc([N+](=O)[O-])c(Nc4ccccc4O)n3)cc2)CC1.O=C(O)C(F)(F)F` with P. falciparum stage V female gametocytes.
5.70

Query pIC50 on P. falciparum stage V female gametocytes for `O=c1c(NCCCN(Cc2ccc(F)cc2)c2ccccn2)c(NCc2cccnc2)c1=O`
6.44

Kindly state the measured pIC50 obtained for `Nc1nc(N)c2cc(NC(=O)c3ccc(Cl)c(Cl)c3)ccc2n1` with P. falciparum stage V female gametocytes.
5.80

Hi! What's the reported pIC50 for CN1CCCC1CCNc1ncc2c(-c3ccc(NC(=O)Nc4cc(C(F)(F)F)ccc4F)c(F)c3)nn(C)c2n1.O=C(O)C(F)(F)F (stereo not shown) on P. falciparum stage V female gametocytes?
5.83

For P. falciparum stage V female gametocytes, provide pIC50 of O=C(CCC1CCCC1)N(Cc1ccc(-c2ccc(CNCCc3ccccc3)cc2)cc1)C1CCCNC1.O=C(O)C(F)(F)F (stereo not shown) please.
5.70

Give the reported pIC50 for `Cc1ccc(Cn2nc(Cl)c(N3CCCNCC3)cc2=O)cc1NC(=O)Nc1ccc(-c2ccccc2)cc1.O=C(O)C(F)(F)F` (system: P. falciparum stage V female gametocytes).
6.00

# value lookup — system P. falciparum stage V female gametocytes, readout pIC50, item `O=C(Nc1ccc(Cl)cc1)c1cc(Cl)cc2nc(C(F)(F)F)[nH]c12`
5.77
